Sourced from patent US8575197B2

Listed compounds paired with reported log10(IC50)
biological target: human P2X3 receptor (Homo sapiens (Human), UniProt P56373); assay: P2X3 receptor inhibition, ATP-evoked Fluo-3 calcium fluorescence (FDSS 3000); details: C6BU-1 cell transfected with human P2X3 receptor gene; ATP-evoked Fluo-3 fluorescence
Sequence (P56373 whole entry): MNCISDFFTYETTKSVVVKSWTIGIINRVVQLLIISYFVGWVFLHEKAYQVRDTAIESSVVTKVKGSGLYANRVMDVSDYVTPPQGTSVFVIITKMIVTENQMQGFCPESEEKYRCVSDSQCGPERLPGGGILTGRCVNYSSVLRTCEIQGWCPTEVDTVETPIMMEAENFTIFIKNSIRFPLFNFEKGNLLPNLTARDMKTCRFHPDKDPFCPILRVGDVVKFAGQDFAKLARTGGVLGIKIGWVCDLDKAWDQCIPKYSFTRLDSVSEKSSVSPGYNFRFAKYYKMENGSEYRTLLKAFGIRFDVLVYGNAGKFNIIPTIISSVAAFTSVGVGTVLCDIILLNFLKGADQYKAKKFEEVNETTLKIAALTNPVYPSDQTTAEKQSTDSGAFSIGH
RECORDED METRIC: log10(IC50) (log10 of the value in nM)

1) COc1ccccc1C1C(C(=O)CC(C)C)=C(O)C(=O)N1c1ccc(-c2ccc(C)o2)cc1 (stereo not shown) : 1.56
2) Cc1cc(-c2ccc(N3C(=O)C(O)=C(C(=O)CC(C)C)C3c3ccccc3OCCO)cc2)on1 (stereo not shown) : 3.00
3) CC(C)(C)c1n[nH]c2c1C(c1cccc3c1OCO3)N(c1ccc(-c3ccon3)cc1)C2=O (stereo not shown) : 2.39
4) CC(C)CC(=O)C1=C(O)C(=O)N(c2ccc(-c3ccon3)cc2)C1c1ccccc1OC(C)C (stereo not shown) : 1.73
5) COCCOc1ccccc1C1C(C(=O)C(C)C)=C(O)C(=O)N1c1ccc(-c2csnn2)cc1 (stereo not shown) : 2.31
6) CNC(=O)CCc1ccccc1C1C(C(=O)C(C)C)=C(O)C(=O)N1c1ccc(-c2noc(C)n2)cc1 (stereo not shown) : 2.91
7) CC(C)C(=O)C1=C(O)C(=O)N(c2ccc(-c3ccsc3)cc2)C1c1ccccc1OCC(=N)NO (stereo not shown) : 0.70

----------
biological target: human P2X3 receptor (Homo sapiens (Human), UniProt P56373); test: P2X3 receptor inhibition, ATP-evoked Fluo-3 calcium fluorescence (FDSS 3000); conditions: C6BU-1 cell transfected with human P2X3 receptor gene; ATP-evoked Fluo-3 fluorescence
pIC50: −log10 of the molar value.
Catalogue of pIC50 values
RECORDED METRIC: pIC50

1) Cc1cc(-c2ccc(N3C(=O)C(O)=C(C(=O)C(C)C)C3c3ccccc3C(=O)N3CCOCC3)cc2)cs1 (stereo not shown) : 6.40
2) COCCOc1ccccc1C1C(C(=O)CC(C)C)=C(O)C(=O)N1c1ccc(-c2coc(C)n2)cc1 (stereo not shown) : 6.16
3) CN(C)C(=O)c1ccccc1C1C(C(=O)C2CCCC2)=C(O)C(=O)N1c1ccc(-c2ccsc2)cc1 (stereo not shown) : 6.86
4) COCc1ccccc1C1C(C(=O)C(C)C)=C(O)C(=O)N1c1ccc(-c2cscn2)cc1 (stereo not shown) : 6.23

----------
target: human P2X3 receptor (Homo sapiens (Human)); assay: P2X3 receptor inhibition, ATP-evoked Fluo-3 calcium fluorescence (FDSS 3000); assay type: cell-based; details: C6BU-1 cell transfected with human P2X3 receptor gene; ATP-evoked Fluo-3 fluorescence
pIC50: −log10 of the molar value.
Below, each entry is listed alongside its reported pIC50.
RECORDED METRIC: pIC50

1) CNC(=O)COc1ccccc1C1c2c(C(C)(C)C)n[nH]c2C(=O)N1c1ccc(-c2ccsc2)cc1 (centres unmarked) [II-167] : 8.30
2) COCOc1ccccc1C1C(C(=O)CC(C)C)=C(O)C(=O)N1c1ccc(-c2csc(C)c2)cc1 (centres unmarked) [Compound I-372] : 7.46
3) COc1ncccc1C1C(C(=O)CC(C)C)=C(O)C(=O)N1c1ccc(-c2ccc(C)s2)cc1 (centres unmarked) [Compound I-336] : 6.45
4) COC1=C(C(=O)CC(C)C)C(c2ccccc2OC)N(c2ccc(-c3ccc(C)s3)cc2)C1=O (centres unmarked) [Compound I-329] : 6.24
5) COc1ccccc1C1c2c(C(C)(C)C)n[nH]c2C(=O)N1c1ccc(C)cc1 (centres unmarked) [II-196] : 6.11
6) CC(C)c1n[nH]c2c1C(c1ccccc1C(=O)NCCO)N(c1ccc(-c3ccsc3)cc1)C2=O (centres unmarked) [II-091] : 8.70
7) CC(C)(C)C(=O)C1=C(O)C(=O)N(c2ccc(-c3nccs3)cc2)C1c1ccccc1OCCO (centres unmarked) [Compound I-082] : 6.19
8) CC(C)(C)C(=O)C1=C(O)C(=O)N(c2ccc(-c3ccon3)cc2)C1c1ccccc1S(C)(=O)=O (centres unmarked) [Compound I-111] : 6.20

----------
molecular target: human P2X3 receptor (Homo sapiens (Human), UniProt P56373); assay: P2X3 receptor inhibition, ATP-evoked Fluo-3 calcium fluorescence (FDSS 3000); details: C6BU-1 cell transfected with human P2X3 receptor gene; ATP-evoked Fluo-3 fluorescence
RECORDED METRIC: IC50 (nM)

1. COc1ncccc1C1C(C(=O)C(C)(C)C)=C(O)C(=O)N1c1ccc(-c2ccco2)cc1 (stereo not shown) [Compound I-117] : 383
2. CSc1ccc(N2C(=O)C(O)=C(C(=O)C(C)(C)C)C2c2ccccc2OCCO)cc1 (stereo not shown) [Compound I-081] : 151
3. CC(C)CC(=O)C1=C(O)C(=O)N(c2ccc(-c3ccoc3)cc2)C1c1ccccc1OC(C)C (stereo not shown) [Compound I-408] : 18
4. COCc1ccccc1C1C(C(=O)CC(C)C)=C(O)C(=O)N1c1ccc(-c2noc(C)n2)cc1 (stereo not shown) [Compound I-315] : 252

----------
target: human P2X3 receptor (Homo sapiens (Human)); test: P2X3 receptor inhibition, ATP-evoked Fluo-3 calcium fluorescence (FDSS 3000); details: C6BU-1 cell transfected with human P2X3 receptor gene; ATP-evoked Fluo-3 fluorescence
pIC50: −log10 of the molar value.
Below is a list of entries, each paired with its recorded pIC50 value.
RECORDED METRIC: pIC50

1. CC(C)c1n[nH]c2c1C(c1ccccc1N)N(c1ccc(-c3ccsc3)cc1)C2=O (stereo not shown) : 6.72
2. Cc1cc(-c2ccc(N3C(=O)C(O)=C(C(=O)CC(C)C)C3c3ccccc3OC(F)(F)F)cc2)cs1 (stereo not shown) : 6.72
3. COCCOc1ccccc1C1C(C(=O)C(C)(C)C)=C(O)C(=O)N1c1ccc(-c2cc[nH]c2)cc1 (stereo not shown) : 6.67
4. COc1ccccc1C1C(C(=O)C(C)C)=C(O)C(=O)N1c1ccc(-c2ccsc2)c(N(C)C)c1 (stereo not shown) : 6.45

----------
Target: human P2X3 receptor (Homo sapiens (Human), UniProt P56373)
Assay: P2X3 receptor inhibition, ATP-evoked Fluo-3 calcium fluorescence (FDSS 3000)
Settings: C6BU-1 cell transfected with human P2X3 receptor gene; ATP-evoked Fluo-3 fluorescence
Protocol: Stably expressing cell line (C6BU-1 cell transfected with human P2X3 receptor gene (GenBank accession number Y07683)) was used. […] Five minutes after, 40 nM ATP solution (50 μL) prepared by dilution with the dilution buffer was dispensed through the built-in automatic dispenser, and the measurement of fluorescence intensity was continued for 3 min. […] FDSS software (Hamamatsu Photonics K.K.) was used for calculation of the specific maximum fluorescence intensity. […]
pIC50: −log10 of the molar value.
RECORDED METRIC: pIC50

1) COCCOc1ccccc1[C@@H]1C(C(=O)C(C)C)=C(O)C(=O)N1c1ccc(-c2ccsc2)cc1 [Compound I-222] : 8.22
2) CC(C)(C)C(=O)C1=C(O)C(=O)N(c2ccc(-c3ccsc3)cc2)C1c1ccccc1C(=O)O (stereo not shown) [Compound I-184] : 6.79
3) COCCOc1ncccc1C1C(C(=O)C(C)C)=C(O)C(=O)N1c1ccc(-c2noc(C)n2)cc1 (stereo not shown) [Compound I-174] : 6.24
4) COc1cccc(C2C(C(=O)C(C)C)=C(O)C(=O)N2c2ccc(-c3ccsc3)cc2)c1 (stereo not shown) [Compound I-284] : 6.52
5) CC(C)C(=O)C1=C(O)C(=O)N(c2ccc(-c3ccsc3)cc2)C1c1ccccn1 (stereo not shown) [Compound I-219] : 6.49
6) COCCOc1ccccc1C1C(C(=O)C(C)C)=C(O)C(=O)N1c1ccc(-c2nc(C)no2)cc1 (stereo not shown) [Compound I-271] : 6.27
7) COCCOc1ncccc1C1C(C(=O)C(C)(C)C)=C(O)C(=O)N1c1ccc(-c2ccsc2)cc1 (stereo not shown) [Compound I-138] : 7.80
8) CNC(=O)COc1ncccc1C1c2c(C(C)C)n[nH]c2C(=O)N1c1ccc(-c2ccsc2)cc1 (stereo not shown) [II-053] : 7.46
9) COc1ccc(-c2n[nH]c3c2C(c2ccccc2OC)N(CCc2ccco2)C3=O)cc1 (stereo not shown) [II-225] : 6.01
10) Cc1nc(-c2ccc(N3C(=O)C(O)=C(C(=O)C(C)C)C3c3cccnc3OCCO)cc2)no1 (stereo not shown) [Compound I-178] : 6.43
11) COc1ncccc1C1C(C(=O)CC(C)(C)C)=C(O)C(=O)N1c1ccc(-c2ccsc2)cc1 (stereo not shown) [Compound I-462] : 6.37
12) Cc1ncccc1C1C(C(=O)C(C)(C)C)=C(O)C(=O)N1c1ccc(-c2ccco2)cc1 (stereo not shown) [Compound I-142] : 6.50
13) CC(C)(C)c1n[nH]c2c1C(c1cccc[n+]1[O-])N(c1ccc(-c3ccsc3)cc1)C2=O (stereo not shown) [II-074] : 7.49
14) COCc1ccccc1C1C(C(=O)CC(C)C)=C(O)C(=O)N1c1ccc(-c2csc(C)c2)cc1 (stereo not shown) [Compound I-376] : 7.60
15) COCCOc1ncccc1[C@@H]1C(C(=O)C(C)C)=C(O)C(=O)N1c1ccc(-c2ccsc2)cc1 [Compound I-395] : 8.22
16) COCCOc1ccccc1C1C(C(=O)C(C)C)=C(O)C(=O)N1c1ccc(-c2ccon2)cc1 (stereo not shown) [Compound I-298] : 6.57
